Measured Emax, listed per entry for reference.
Biological target: hCB2 receptor (Homo sapiens, UniProt P34972)
Construct: purchased PerkinElmer (Belgium)
Sequence (P34972 whole entry): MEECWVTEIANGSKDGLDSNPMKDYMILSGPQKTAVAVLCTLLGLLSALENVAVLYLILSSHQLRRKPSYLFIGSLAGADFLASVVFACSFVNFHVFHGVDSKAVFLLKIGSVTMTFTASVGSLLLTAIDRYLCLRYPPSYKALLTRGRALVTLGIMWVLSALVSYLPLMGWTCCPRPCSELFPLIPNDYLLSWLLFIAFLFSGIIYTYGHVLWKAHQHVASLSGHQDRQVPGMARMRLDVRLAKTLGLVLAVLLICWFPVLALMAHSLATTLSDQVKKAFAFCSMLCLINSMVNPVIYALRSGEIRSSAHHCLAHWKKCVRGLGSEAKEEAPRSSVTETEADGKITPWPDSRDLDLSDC
Experiment: [35S]-GTPγS binding assay (CB2 functional activity assay)
Type: biochemical
Details: percentage of stimulation of [35S]-GTPγS binding, basal value set at 100%; read-out: Functional activity at CB2 EMax
Report the figure in % without appending any unit label.

Field: example entries. Status: answers known.
>>> test_value("CCCCCn1cc(C(=O)NC2CCCCC2)c(=O)cc1-c1ccc(Cl)cc1 [Compound 19]")
39
>>> test_value("CCCCCn1cc(C(=O)NC(C)C23CC4CC(CC(C4)C2)C3)c(=O)cc1-c1ccccc1 (stereo not shown) [Compound 6]")
46

Note to self: Emax recorded for CCCCCn1cc(C(=O)NC23CC4CC(C)(CC(C)(C4)C2)C3)c(=O)cc1-c1ccccc1 [Compound 9] was 41

Note to self: Emax recorded for CCCCCn1cc(C(=O)NC2CCCCC2)c(=O)cc1-c1ccccc1 [Compound 13] was 62

Note to self: Emax recorded for CCCCCn1cc(C(=O)NC23CC4CC(CC(C4)C2)C3)c(=O)cc1C(C)(C)C [Compound 20] was 212

Note to self: Emax recorded for CCCCCn1cc(C(=O)N[C@H]2CCCc3ccccc32)c(=O)cc1-c1ccccc1 [Compound 16] was 48

Note to self: Emax recorded for CCCCCn1cc(C(=O)NC2CCCc3ccccc32)c(=O)cc1-c1ccccc1 (racemic) [Compound 14] was 40

Note to self: Emax recorded for CCCCCn1cc(C(=O)N[C@@H]2CCCc3ccccc32)c(=O)cc1-c1ccccc1 [Compound 15] was 42

Note to self: Emax recorded for CCCCCn1cc(C(=O)NN2CCCCC2)c(=O)cc1-c1ccccc1 [Compound 17] was 48

Note to self: Emax recorded for CCCCCn1cc(C(=O)NC23CC4CC(CC(C4)C2)C3)c(=O)cc1C [Compound 38] was 148

Sourced from patent US20120149735A1
